- experimental.target: PARP2 (Mus musculus, UniProt O88554)
- Construct: made in house; host or cells: insect cells
- Sequence (O88554 whole entry): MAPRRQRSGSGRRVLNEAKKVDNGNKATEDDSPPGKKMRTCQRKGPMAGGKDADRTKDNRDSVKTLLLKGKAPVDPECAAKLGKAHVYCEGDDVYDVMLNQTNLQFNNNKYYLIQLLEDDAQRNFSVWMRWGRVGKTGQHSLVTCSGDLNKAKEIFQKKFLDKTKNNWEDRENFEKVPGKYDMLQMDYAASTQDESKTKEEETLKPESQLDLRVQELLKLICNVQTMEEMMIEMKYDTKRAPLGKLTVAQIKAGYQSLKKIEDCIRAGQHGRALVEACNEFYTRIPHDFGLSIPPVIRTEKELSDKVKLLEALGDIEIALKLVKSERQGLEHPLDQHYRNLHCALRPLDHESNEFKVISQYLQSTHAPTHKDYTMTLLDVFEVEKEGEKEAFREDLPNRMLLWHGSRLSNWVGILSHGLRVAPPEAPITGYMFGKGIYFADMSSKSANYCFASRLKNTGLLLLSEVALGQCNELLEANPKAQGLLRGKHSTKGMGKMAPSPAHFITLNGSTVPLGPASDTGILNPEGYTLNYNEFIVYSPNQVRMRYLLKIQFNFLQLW
- assay.notes: Steady-state kinetic analysis of the PARP2 enzymatic reaction
- Assay type: biochemical, murine
- assay.conditions: read-out: Ki(2) (affinity for the enzyme complex with NAD+ substrate)
measurement.kind: pKi
Please express pKi as -log10 of the molar concentration.

// query Value lookup for pKi; key = NC[C@@H]1CNC[C@H](n2cc(I)c(=O)[nH]c2=O)O1 [Compound 14]
// result 3.40

###

- experimental.target: PARP1 (Homo sapiens, UniProt P09874)
- Construct: made in house; host or cells: insect cells
- Sequence (P09874 whole entry): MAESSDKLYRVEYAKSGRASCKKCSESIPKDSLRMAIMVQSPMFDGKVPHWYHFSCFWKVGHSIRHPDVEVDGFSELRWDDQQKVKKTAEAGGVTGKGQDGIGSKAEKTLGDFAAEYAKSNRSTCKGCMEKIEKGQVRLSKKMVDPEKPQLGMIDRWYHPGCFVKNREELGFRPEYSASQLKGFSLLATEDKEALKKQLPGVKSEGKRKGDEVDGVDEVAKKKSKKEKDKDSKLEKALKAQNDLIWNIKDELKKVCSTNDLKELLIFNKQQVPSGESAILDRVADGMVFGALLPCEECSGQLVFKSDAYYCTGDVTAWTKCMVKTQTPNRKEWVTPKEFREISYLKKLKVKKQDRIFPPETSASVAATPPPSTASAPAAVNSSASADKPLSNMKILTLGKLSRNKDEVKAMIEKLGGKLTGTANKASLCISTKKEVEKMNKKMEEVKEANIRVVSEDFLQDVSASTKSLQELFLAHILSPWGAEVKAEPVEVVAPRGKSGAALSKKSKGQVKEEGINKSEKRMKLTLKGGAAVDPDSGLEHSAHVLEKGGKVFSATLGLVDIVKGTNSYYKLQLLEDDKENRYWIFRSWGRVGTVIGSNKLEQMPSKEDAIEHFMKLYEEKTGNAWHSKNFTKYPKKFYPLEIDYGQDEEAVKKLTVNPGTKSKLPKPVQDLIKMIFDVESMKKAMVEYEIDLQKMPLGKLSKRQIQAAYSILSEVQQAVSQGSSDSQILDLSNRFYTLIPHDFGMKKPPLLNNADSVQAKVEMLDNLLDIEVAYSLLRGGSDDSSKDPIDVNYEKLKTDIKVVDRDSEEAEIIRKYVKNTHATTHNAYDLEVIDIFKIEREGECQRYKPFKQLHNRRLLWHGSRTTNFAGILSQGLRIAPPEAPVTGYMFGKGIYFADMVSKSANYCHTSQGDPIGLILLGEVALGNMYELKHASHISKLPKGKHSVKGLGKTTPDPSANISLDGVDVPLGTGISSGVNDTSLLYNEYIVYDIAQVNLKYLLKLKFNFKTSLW
- assay.notes: Steady-state kinetic analysis of the PARP1 enzymatic reaction
- Type: biochemical
- assay.conditions: Vmax decreased, KM increased
measurement.kind: Type of inhibition

* NC[C@@H]1CNC[C@H](n2cc(Br)c(=O)[nH]c2=O)O1 | mixed-type inhibition
* NC[C@@H]1CNC[C@H](n2cc(Cl)c(=O)[nH]c2=O)O1 | mixed-type inhibition
* Cc1cn([C@H]2CNC[C@@H](CN)O2)c(=O)[nH]c1=O | mixed-type inhibition
* NC[C@@H]1CNC[C@H](n2cc(I)c(=O)[nH]c2=O)O1 | mixed-type inhibition
